Across several studies, compounds have been characterized by their log10 IC50 on Glucocorticoid receptor (Homo sapiens, UniProt P04150); a selection follows.
PROPERTY: log10 IC50 (log10 of the value in nM)

{"columns": ["COMPOUND", "log10 IC50"],
 "data": [
  ["Cc1nn(Cc2ccccc2)c(-c2ccc(F)cc2)c1-c1ccc2c(c1)NC(=O)CO2", 2.80],
  ["CC1=CC(C)(C)Nc2ccc3c(c21)C(c1ccccc1)Oc1ccccc1-3 (stereo not drawn)", 2.35],
  ["COc1ccc(F)cc1C(C)(C)CC(O)(Cc1cccc(C)c1)C(F)(F)F (stereo not drawn)", 2.76],
  ["CC(C)(CC(O)(Cc1ccc2ccccc2c1)C(=O)Nc1ccc2c(c1)COC2=O)c1ccccc1 (stereo not drawn)", 2.04],
  ["COc1ccc(F)cc1C(C)(C)CC(O)(Cc1c(C)ccc2ccccc12)C(F)(F)F (stereo not drawn)", 1.81],
  ["CCN(CC(O)(CNc1cccc2c1cnn2-c1ccccc1)C(F)(F)F)S(=O)(=O)c1ccc(F)cc1 (racemic)", 0.90]
]}
